System: Human immunodeficiency virus
Experiment: Antiviral activity against HIV-1 harboring integrase E92Q mutant
Format: functional
endpoint: fold change (FC)
The reply should be a number, written without any unit.

Consider the following illustrative entries.
C[C@H](O)N1C(=O)c2c3c(c(O)c(=O)n2[C@]12CC[C@H]1C[C@H]12)C(=O)N(Cc1ccc(F)c(Cl)c1)CC3 | 1.5
CN1C(=O)c2c3c(c(O)c(=O)n2[C@]12CC[C@H]1C[C@@]12CO)C(=O)N(Cc1ccc(F)c(Cl)c1)CC3 | 1
Cc1nnc(C(=O)NC(C)(C)c2nc(C(=O)NCc3ccc(F)cc3)c(O)c(=O)n2C)o1 | 3

Ask | If you can, please state the reported fold change (FC) value of `CC(C)n1c(C(=O)N(C)C)c2c(c(O)c1=O)C(=O)N(Cc1ccc(F)c(Cl)c1)CC2` .
Reply | 1

The reported measurements were obtained from ChEMBL document CHEMBL5236553.
